# measured-on: PPARα (Homo sapiens, UniProt Q07869)
# Sequence (Q07869 1-468): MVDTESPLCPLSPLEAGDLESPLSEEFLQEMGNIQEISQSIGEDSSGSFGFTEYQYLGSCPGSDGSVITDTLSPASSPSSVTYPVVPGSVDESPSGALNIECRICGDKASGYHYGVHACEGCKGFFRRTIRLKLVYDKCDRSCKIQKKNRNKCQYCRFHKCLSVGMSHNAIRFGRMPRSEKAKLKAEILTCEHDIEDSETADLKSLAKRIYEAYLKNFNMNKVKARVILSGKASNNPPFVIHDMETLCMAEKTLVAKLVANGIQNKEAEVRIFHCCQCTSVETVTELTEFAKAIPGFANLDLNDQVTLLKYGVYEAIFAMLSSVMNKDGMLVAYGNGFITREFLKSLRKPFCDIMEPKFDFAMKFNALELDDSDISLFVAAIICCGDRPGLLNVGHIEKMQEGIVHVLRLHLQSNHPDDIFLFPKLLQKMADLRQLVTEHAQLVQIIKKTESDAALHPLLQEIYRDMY
# assay-overview: PPAR agonist activity in human cell lines expressing PPAR isotypes
# Assay type: cell-based
# assay-conditions: human cell lines expressing all three PPAR isotypes
# Protocol: Compound I is a PPARδ agonist that is useful in the methods of treatment described herein. In human cell lines expressing all three peroxisome proliferator-activated receptor (PPAR) isotypes, Compound I is a potent (EC50<100 nM) and selective human PPARδ agonist, with minor activity on PPARα (EC50>10 μM) and PPARγ (EC50>10 μM).
measured-parameter: EC50

For `Cc1cc(OC/C=C(/c2ccc(F)cc2)c2ccc(C#CCN3CCOCC3)cc2)ccc1OCC(=O)O` , write its EC50.
> 10 µM

* * *

# measured-on: PPARγ (Homo sapiens)
# Sequence (P37231 1-505): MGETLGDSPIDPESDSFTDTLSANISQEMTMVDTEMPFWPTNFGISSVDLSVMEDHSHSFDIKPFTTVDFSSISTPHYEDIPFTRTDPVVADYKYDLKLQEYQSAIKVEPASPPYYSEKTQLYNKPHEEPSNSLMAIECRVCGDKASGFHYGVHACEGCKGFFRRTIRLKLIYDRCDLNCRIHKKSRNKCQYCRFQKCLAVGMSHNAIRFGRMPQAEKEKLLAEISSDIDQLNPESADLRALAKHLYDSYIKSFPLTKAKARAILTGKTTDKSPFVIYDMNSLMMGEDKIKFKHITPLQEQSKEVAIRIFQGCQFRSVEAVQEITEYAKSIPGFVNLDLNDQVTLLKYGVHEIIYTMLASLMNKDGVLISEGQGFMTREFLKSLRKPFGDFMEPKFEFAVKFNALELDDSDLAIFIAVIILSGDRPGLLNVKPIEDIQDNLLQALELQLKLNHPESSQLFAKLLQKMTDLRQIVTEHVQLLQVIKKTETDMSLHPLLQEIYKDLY
# assay-overview: PPAR agonist activity in human cell lines expressing PPAR isotypes
# assay-conditions: human cell lines expressing all three PPAR isotypes
pEC50: −log10 of the molar value.
measured-parameter: pEC50

For `Cc1cc(OC/C=C(/c2ccc(F)cc2)c2ccc(C#CCN3CCOCC3)cc2)ccc1OCC(=O)O` , write its pEC50.
< 5.00

* * *

# measured-on: human PPARδ (Homo sapiens, UniProt Q03181)
# Sequence (Q03181 whole entry): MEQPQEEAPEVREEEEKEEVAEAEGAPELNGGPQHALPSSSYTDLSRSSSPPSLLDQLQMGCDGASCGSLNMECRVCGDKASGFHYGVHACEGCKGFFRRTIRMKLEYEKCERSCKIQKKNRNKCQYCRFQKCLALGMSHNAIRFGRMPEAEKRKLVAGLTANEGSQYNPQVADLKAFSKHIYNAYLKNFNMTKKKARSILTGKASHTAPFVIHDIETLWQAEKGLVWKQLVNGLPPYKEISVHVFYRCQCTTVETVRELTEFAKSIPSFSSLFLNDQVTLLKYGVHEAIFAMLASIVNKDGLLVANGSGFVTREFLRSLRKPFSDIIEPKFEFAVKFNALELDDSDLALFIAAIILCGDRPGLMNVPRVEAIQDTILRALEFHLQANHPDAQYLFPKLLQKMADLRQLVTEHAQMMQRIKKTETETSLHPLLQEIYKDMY
# assay-overview: PPAR agonist activity in human cell lines expressing PPAR isotypes
# assay-conditions: human cell lines expressing all three PPAR isotypes
pEC50: −log10 of the molar value.
measured-parameter: pEC50

// fetch pEC50; item: `Cc1cc(OC/C=C(/c2ccc(F)cc2)c2ccc(C#CCN3CCOCC3)cc2)ccc1OCC(=O)O` ; system: human PPARδ (Homo sapiens, UniProt Q03181)
> 7.00
